Test system: HCT-116 colon
Assay: NCI tumour cell line growth inhibition, 48 h

{"columns": ["compound", "relation_operator", "TGI, µM"],
 "data": [
  ["CC(C)=CCC/C(C)=C/CO", ">", 100],
  ["O=C(NN1C(=O)C(Cl)C1c1ccc(O)cc1)c1ccccc1O (configuration not stated)", "=", 28.5],
  ["CCCCCCCCOCC(CO)OCCCCCCCC (configuration not stated)", "=", 33.6],
  ["O=C1c2[nH]c3ccccc3c2CCN2CCCCC12 (configuration not stated)", "=", 54.6],
  ["CN(C)c1cc[n+](/C(NS(=O)(=O)c2cc(C(=O)Nc3ccc(Cl)cc3)c(Cl)cc2[S-])=C(\\C#N)C(=O)c2ccccc2)cc1", "=", 34.3],
  ["Nc1nc(-c2ccco2)cc(-c2ccco2)n1", ">", 100],
  ["O=C1C(Cl)=C(Cl)C(=O)C2=C1C1c3ccccc3C2c2ccccc21", ">", 100],
  ["CCC(CC)c1nc(Nc2cccc(OC)c2)c2ccccc2n1", "=", 15.1],
  ["Cn1ncc(NC(=O)c2nc(-c3c(F)cccc3F)sc2N)c1N1CC[C@@H](N)[C@H](F)CC1", "=", 60.3],
  ["O=[N+]([O-])c1cc(Cl)c(Cl)cc1[N+](=O)[O-]", ">", 100],
  ["CC(N)Cc1ccc(F)cc1 (configuration not stated)", ">", 100],
  ["Cc1ccc(C(=O)O)cc1NC(=O)c1cc(/C=C/c2ccccc2)[nH]c(=S)n1", ">", 53],
  ["CC[C@]12C=CCN3CC[C@@]4(c5cc(N=O)c(OC)cc5N(C)[C@H]4[C@@](O)(C(=O)NC(Cc4c[nH]c5ccccc45)C(=O)OC)[C@@H]1O)[C@@H]32 (some centres not stated)", "=", 28.3],
  ["COc1ccc2c(CCNC(C)=O)c(C(C)=O)[nH]c2c1", ">", 100],
  ["Cc1ccc(-n2c(=O)c3nn4c(=O)n(-c5ccc(C)cc5)c(=O)c4nn3c2=O)cc1", ">", 100],
  ["Cn1c(-c2ccccc2)cc(-c2ccsc2)c1-c1ccsc1", ">", 100],
  ["Cc1ccc(O)c(-c2cc(-c3cccc(Br)c3)on2)c1", "=", 57.7],
  ["OC(c1ccoc1)c1cc2ccccc2s1 (configuration not stated)", ">", 10],
  ["O=C([O-])c1cc(I)cc(I)c1[OH2+].O=C([O-])c1cc(I)cc(I)c1[OH2+].[Mn+2]", ">", 100],
  ["CCCN=Cc1c(O)c(O)c(C(C)C)c2cc(C)c(-c3c(C)cc4c(C(C)C)c(O)c(O)c(C=NCCC)c4c3O)c(O)c12", "=", 14.3],
  ["O=C1C=CC(=O)c2cc3cc(CO)ccc3cc21", "=", 3.22],
  ["CCN(CC)CCNc1ccc2nnn3c4ccc([N+](=O)[O-])cc4c(=O)c1c23", "=", 19.7]
]}

====

Test system: MOLT-4 leukemia
Test: NCI tumour cell line growth inhibition, 48 h

{"columns": ["compound", "TGI"],
 "data": [
  ["COc1cc2c3c(n(CCCNCCNCCN)c(=O)c2cc1OC)-c1cc2c(cc1C3=O)OCO2", "1.8 µM"],
  ["O=C(c1ccccc1)N1CCN2CCN=C(c3ccccc3)C21c1ccccc1 (stereo not given)", "> 100 µM"],
  ["C#CCn1cnc2cnc(Nc3cccc(NC(=O)CCl)c3)nc21", "> 62.5 µM"],
  ["CC1=CC(C)(C)[C@H]2O[C@@]3(O)C[C@]4(C)[C@H]5C[C@@](C(C)C)(O[C@H]4c4ccoc4)O[C@H]4[C@]5(C3)O[C@@]1(O)[C@]24O", "> 100 µM"],
  ["CCCCCCCCCCCCCCCC/C(C(=O)OC)=C(/O)C(=O)OCC", "> 100 µM"],
  ["COc1cccc2c1N[S@](=O)S2", "> 100 µM"],
  ["Nc1nonc1C(=Nc1ccc(F)c(Cl)c1)NO", "> 100 µM"],
  ["COC1OC(COC(C)=O)C(OC(C)=O)C(OC(C)=O)C1NC(=O)N(CCCl)N=O (stereo not given)", "> 100 µM"],
  ["CC(=O)O[C@H]1C(=O)[C@@]2(C)[C@H]([C@H](OC(=O)c3ccccc3)[C@]3(O)C[C@H](OC(=O)[C@H](O)[C@@H](NC(=O)c4ccccc4)c4ccccc4C)C(C)=C1C3(C)C)[C@]1(OC(C)=O)CO[C@@H]1C[C@@H]2O", "5.35 µM"],
  ["Oc1ccc(O)c(Cc2ccccc2)c1", "22.8 µM"]
]}
